Assay: Stability in human plasma
Type: in vitro ADME
Details: human, plasma; 2 μM, 37° C.; read-out: half-life (t1/2) in human plasma
Where a SMILES comes first, the peptide text is derived from it. [ ]: non-standard residue; d: D form. ξ: configuration not given here. ξαMeBip(2'-Et,4'-OMe) = CCc1cc(OC)ccc1-c1ccc(CC(C)(N)C(=O)O)cc1; ξBip(2'-Et-4'-OMe) = CCc1cc(OC)ccc1-c1ccc(CC(N)C(=O)O)cc1; ξαMe(hhPhe) = CC(N)(CCCc1ccccc1)C(=O)O; ξαMePhe(2-F) = CC(N)(Cc1ccccc1F)C(=O)O; ξhhPhe = NC(CCCc1ccccc1)C(=O)O; ξαMeD = CC(N)(CC(=O)O)C(=O)O; ξαMeS = CC(N)(CO)C(=O)O
observable: half-life

compound	value_reported
CCc1cc(OC)ccc1-c1ccc(CC(NC(=O)[C@H](CC(=O)O)NC(=O)[C@H](CO)NC(=O)[C@@H](NC(=O)C(C)(Cc2ccccc2F)NC(=O)[C@@H](NC(=O)CNC(=O)[C@H](CCC(N)=O)NC(=O)[C@H](C)NC(=O)[C@H](Cc2c[nH]cn2)NC(=O)[C@@H](N)C(C)C)[C@@H](C)O)[C@@H](C)O)C(=O)NC(C)(CCCc2ccccc2)C(N)=O)cc1 (stereo partly drawn) [compound 92] (H-VHAQGT[ξαMePhe(2-F)]TSD[ξBip(2'-Et-4'-OMe)][ξαMe(hhPhe)]-NH2)	> 24 h
CCc1cc(OC)ccc1-c1ccc(CC(NC(=O)C(C)(CC(=O)O)NC(=O)C(C)(CO)NC(=O)[C@@H](NC(=O)[C@H](Cc2ccccc2)NC(=O)[C@@H](NC(=O)CNC(=O)[C@H](CCC(N)=O)NC(=O)[C@H](C)NC(=O)[C@H](Cc2c[nH]cn2)NC(=O)[C@@H](N)C(C)C)[C@@H](C)O)[C@@H](C)O)C(=O)NC(C)(CCCc2ccccc2)C(N)=O)cc1 (stereo partly drawn) [compound 108] (H-VHAQGTFT[ξαMeS][ξαMeD][ξBip(2'-Et-4'-OMe)][ξαMe(hhPhe)]-NH2)	> 24 h
CCc1cc(OC)ccc1-c1ccc(CC(C)(NC(=O)[C@H](CC(=O)O)NC(=O)C(C)(CO)NC(=O)[C@@H](NC(=O)[C@H](Cc2ccccc2)NC(=O)[C@@H](NC(=O)CNC(=O)[C@H](CCC(=O)O)NC(=O)[C@H](C)NC(=O)[C@H](Cc2c[nH]cn2)NC(=O)[C@@H](N)C(C)C)[C@@H](C)O)[C@@H](C)O)C(=O)NC(CCCc2ccccc2)C(N)=O)cc1 (stereo partly drawn) [compound 38] (H-VHAEGTFT[ξαMeS]D[ξαMeBip(2'-Et,4'-OMe)][ξhhPhe]-NH2)	> 24 h

meta.source: patent US20120264685A1
